From: ChEMBL document CHEMBL1201862

- Tested on: SW-620
- Method Summary: NCI tumour cell line growth inhibition, 48 h
The source made the active and inactive calls. No stated cut-off is given here; in the data, active = GI50 up to about 1.1 µM and inactive = higher.
API: response.call in active, inactive

Solved cases (5 shown):
{"columns": ["Molecule", "Class Label"],
 "data": [
  ["CC[C@]12C=CCN3CCC4(c5cc([C@@]6(C(=O)OC)CC7CN(CCc8c6[nH]c6ccccc86)C[C@@H]6CCC[C@H]76)c(OC)cc5N(C)C4[C@](O)(C(=O)OC)C1OC(C)=O)C32 (some centres not stated)", "active"],
  ["O=C(CCCNc1nc(-c2ccccc2)cs1)c1cccs1", "inactive"],
  ["C[n+]1c(-c2ccc(/C=N/NC(=O)C(=O)N/N=C/c3ccc(-c4cn5ccccc5[n+]4C)cc3)cc2)cn2ccccc21", "inactive"],
  ["CC(C)(NO)/C(=N\\O)c1ccco1", "inactive"],
  ["COC1OC2COC1(OCc1ccccc1)C1OC(C)(C)OC21 (configuration not stated)", "inactive"]
]}

// param item: Cc1nc2cc(C(F)(F)F)ccc2[nH]c1=O ; yields the recorded call
inactive

Also CCn1c(=O)c2ccccc2n2c(=O)c3cc4ccccc4cc3nc12 , if possible.
inactive

Input O=C1C(CN2CCCC2)CCC1CN1CCCC1 (configuration not stated)
inactive

Continue with CC(C)C(=S)N(C)O
inactive

Same question for O=C(NCCCN(CCCCN(CCCNC(=O)c1cc(S(=O)(=O)O)cc(O)c1O)C(=O)c1cc(S(=O)(=O)O)cc(O)c1O)C(=O)c1cc(S(=O)(=O)O)cc(O)c1O)c1cc(S(=O)(=O)O)cc(O)c1O please.
inactive

Note, next up: Cc1cc(N)c2ccccc2[n+]1CCCCCCCCCCNc1cc(C)[n+](CCCCCCCCCC[n+]2c(C)cc(N)c3ccccc32)c2ccccc12
inactive

----------
- Tested on: IGROV-1
- Method Summary: NCI tumour cell line growth inhibition, 48 h
Active and inactive are the calls of the source. Cut-off read from the data, not from the text of the source: active = GI50 up to about 1.1 µM and inactive = higher.
Reported Metric: GI50

# count of solved cases: 5
{"columns": ["Molecule", "GI50"],
 "data": [
  ["C[C@H]1C[C@H]2[C@@H]3C(C)(C)O[C@]4(O)C(=O)[C@]5(O)[C@@H](C)CC[C@H]1[C@]25C(=O)[C@]34C", "64 µM (inactive)"],
  ["CCC(Oc1ccc(OC)c2c1C(=O)CCC2)C(=O)O (configuration not stated)", "> 100 µM (inactive)"],
  ["CC1(C)C2CCC1(C)C(NC(=O)CCN1CCOCC1)C2 (configuration not stated)", "> 100 µM (inactive)"],
  ["O=C1C(CN2CCCC2)CCC1CN1CCCC1 (configuration not stated)", "27.9 µM (inactive)"],
  ["Cc1cc(=O)c2cc(/N=C/c3ccc([N+](=O)[O-])o3)ccc2o1", "> 100 µM (inactive)"]
]}

Endpoint output: GI50 of C/C(=N\NC(N)=S)c1sc(-n2nc(-c3ccccc3)cc2-c2ccccc2)nc1C . Value?
16 µM (inactive)

Would you kindly repeat that for O=c1c2ccccc2nc(-c2ccccc2)n1NCC1(O)OCC(O)C(O)C1O (configuration not stated) ?
> 100 µM (inactive)

Can you handle O=c1oc2cccnc2n1CCCCN1CCN(c2ccccc2)CC1 next?
> 100 µM (inactive)

Now give it for Nc1ncc(Cl)c(NCC2(CO)CC(CCc3ccccc3)C2)n1 (configuration not stated) too.
> 100 µM (inactive)

Next up: CC[C@]12C=CCN3CCC4(c5cc([C@@]6(C(=O)OC)CC7CN(CCc8c6[nH]c6ccccc86)C[C@@H]6CCC[C@H]76)c(OC)cc5N(C)C4[C@](O)(C(=O)OC)C1OC(C)=O)C32 (some centres not stated)
0.218 µM (active)

Same lookup for Cc1nc(N)nc(CCC(=O)Nc2cccc(C(F)(F)F)c2)c1-c1ccc(Cl)cc1 , please.
> 100 µM (inactive)

What about O=C(c1ccccc1)C(Nc1ccc2ccccc2c1)c1ccccc1 (configuration not stated) ?
29.7 µM (inactive)

Then Cc1ccc2nc(/C=N/c3ccccc3Cl)cc(C)c2c1 ?
18.9 µM (inactive)

Continue with COc1ccc(-c2cc(-c3ccccc3)nc(/N=C\c3ccccc3)n2)c(O)c1
11.5 µM (inactive)

Ok, now COc1ccc(/C=C/C(=O)C(C)C)cc1
> 100 µM (inactive)

Follow-up item: CCCCn1c2c(n(CCCC)c1=[Se])-c1c(n(CCCC)c(=[Se])n1CCCC)S[Se][Se]S2
7.1 µM (inactive)

Same question, O=C(Nc1c(O)[nH]c(=S)[nH]c1=O)c1ccc2ccccc2n1 this time
> 100 µM (inactive)
